MEASUREMENT DESCRIPTION: amyloid nucleation score (Sup35N fusion, yeast selection) (log enrichment); library NNK1; higher = more nucleation; inactive = no reads after selection;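 also: zero at mode of non-aggregating sequences after 7 days selection at 30°C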
Measured amyloid nucleation score values are reported for all entries that follow.
ASSAY ENDPOINT: amyloid nucleation score

>>> df
               substance  quantitative_readout
 0     AGMTFRFLHEVSSSQSN                  3.06
 1  AGKHLGNNIRYILVYGESFR                 -1.09
 2  FIHALLSNYVSIIFSNDRIC                  2.31
 3    IKPDWKMKNRDGTTTKLI                   2.6
 4  VYTDLKGENAGGIIYCGIGS                 0.445
 5    FNSYKGLIVQKYPSMTLN                 0.302
 6            VCRRVHGSMP                -0.236
 7              NGRFSADS                 -1.77
 8           NHCSLFCAFSW                  1.86
 9  TFSHWPLWNVYRSFAFTCRP                 0.871
10  VLSAYSFYVSIWYNFSFIYG                 0.689
11               SSYFTKM                 0.548
12  CYTLFAVVNMLLVFNWQCRD                 -0.34
13         SSFSVVFDSHVSS                 0.382
14              MICAQSVS                 0.991
15       LNTVSEITVVAKLNF                   2.3
16  YYHRSNTLLSIYVSKLLTNN                -0.183
17            FCARGRNRPN                  1.04
18  MLYDFVDIRECNDILPARGG                 0.043
19  FYPLVTFFVLHHGNMNIHRV                  6.78
20  ECDSAFRSQGGGLACLFRMK                -0.171
21  HSSAEIMPGHISGTWGLCDK                 -0.62
22  VHTWYHCLSAEMSVMSILDL                 -0.39
23  SFVCRCFSMCNGEILFLIPY                 0.644
24  FNFMVNRLMVKVGLVSWRQY                 0.029
25    INDRVDGSVIEMSLCRYG                  1.19
26  VVIVGAGIPWILGESAVFRC                 0.218
27  GPHLIKVCFSEPMGFKVFLL                  2.12
28  SKTVVTKVKLSIWAGRVLRF                 -1.14
29   STRICWGTCFDKLDMGGSR                  1.95
30               SRVLRPS                -0.174
31  GGGSMAGAERPGGLGQVRCN                   1.2
32  SPTTKCLPSERSSINCNLMT                 0.311
33  LCDSPSKYNGPEYSMYVNLN                  1.51

Hey, just so you know, these numbers are from the supplement of paper PMC12042874.
